# Test system: NCI-H1417 cells
# Protocol: Proliferation inhibitory activity against NCI-H1417 cells (CellTiter-Glo)
# Format: cell-based
# Study conditions: Homo sapiens, 240 h, 10 days incubation, starting concentration 10 μM, read-out: IC50 (nM), NCI-H1417 cell proliferation inhibition
Counter-ions that a name gives are not always drawn.
Metric name: IC50 (nM)
Answer format: numeric, nM implied, no suffix.

Query :: Could you share what IC50 was measured for CC(C)(O)Cn1nnc2cc(-c3cn(CC(=O)N4CCC[C@@H](N)C4)nc3-c3ccc(C#N)c(F)c3)ccc21 [Hydrochloride of compound 22] , tested on NCI-H1417 cells?
Result :: 107

Every entry's value here was drawn from patent US11524941B2.
